Parameter Test G disease control rating: see the listing below.
- Test system: Septoria tritici
- test_name: Test G: wheat leaf blotch on wheat seedlings, sprayed the day before inoculation, visual disease rating
- Type: in vivo
- setup_conditions: 200 ppm; 100 = 100% disease control, 0 = no control relative to controls
# output: bare number, implied unit %

Below are worked cases with known answers.
Cc1nc(Cl)c(-c2c(F)cc(F)cc2F)n1-c1cccc(OC(F)F)c1 [compound 609]
99
COc1cc(F)c(-c2c(Cl)ncn2-c2cccc(OC(F)(F)F)c2)c(F)c1 [compound 558]
94

stdin: Look at this compound and give its reported Test G disease control rating. CCOc1ccc(F)c(-c2c(Cl)nc(C)n2-c2ccc(Cl)cc2)c1F [compound 684]
stdout: 99

----------
- Test system: Botrytis cinerea
- test_name: Test C: tomato Botrytis on tomato seedlings, sprayed the day before inoculation, visual disease rating
- Format: in vivo
- setup_conditions: 40 ppm (marked *); 100 = 100% disease control, 0 = no control
Marks after values point to notes of the source that are not given here.
quantity_name: Test C disease control rating

stdin: Look at this compound and give its reported Test C disease control rating. Cc1nc(Cl)c(-c2c(F)cccc2F)n1-c1ccc(Cl)c2ccccc12
stdout: 0* %

stdin: Look at this compound and give its reported Test C disease control rating. COc1cc(F)c(-n2c(Cl)nc(C)c2-c2ccc(Cl)cc2)c(F)c1
stdout: 100* %

stdin: Look at this compound and give its reported Test C disease control rating. Fc1cc(F)c(-n2cnc(Br)c2-c2ccc(Cl)cc2)c(F)c1
stdout: 40* %

stdin: Look at this compound and give its reported Test C disease control rating. CCOc1cc(F)c(-c2c(Cl)nc(C)n2-c2ccc(Cl)cc2)c(F)c1
stdout: 98* %

stdin: Look at this compound and give its reported Test C disease control rating. COc1ccc(F)c(-c2c(Cl)nc(C)n2-c2cccc(C)c2)c1F
stdout: 100* %

stdin: Look at this compound and give its reported Test C disease control rating. Fc1ccc(F)c(-c2c(Br)nc(Br)n2-c2ccc(Cl)cc2)c1F
stdout: 100* %

stdin: Look at this compound and give its reported Test C disease control rating. COc1cc(F)c(-n2c(Cl)nc(CCl)c2-c2ccc(Cl)cc2)c(F)c1
stdout: 100* %

----------
- Tested on: Puccinia recondita f. sp. tritici
- test_name: Test I: wheat leaf rust on wheat seedlings, sprayed the day before inoculation, visual disease rating
- Format: in vivo
- setup_conditions: 200 ppm; 100 = 100% disease control, 0 = no control
Mark 1 only when Test I disease control rating stays strictly below 80%. Values equal to the cut-off are -1.

stdin: Report whether reported Test I disease control rating is lower than 80% (strictly) for COc1cc(F)c(-c2c(Cl)ncn2Cc2ccc(Cl)cc2)c(F)c1
stdout: -1

stdin: Report whether reported Test I disease control rating is lower than 80% (strictly) for Fc1ccc(-n2c(Br)nc(Cl)c2-c2c(F)ccc(F)c2Cl)cc1
stdout: -1

stdin: Report whether reported Test I disease control rating is lower than 80% (strictly) for Cc1nc(Cl)c(-c2c(F)ccc(F)c2F)n1Cc1ccc(Cl)cc1
stdout: -1

stdin: Report whether reported Test I disease control rating is lower than 80% (strictly) for Fc1ccc(-n2cnc(Cl)c2-c2c(F)cccc2F)cc1F
stdout: 1

stdin: Report whether reported Test I disease control rating is lower than 80% (strictly) for CN(C)c1ncn(Cc2cccc(Cl)c2)c1-c1ccc(Cl)cc1
stdout: 1
